# subject-of-test: T1, Pro-Phe-Arg-MCA
# T1 chain: PFR
The following proteins are shown together with reported Km values.
Answer in mM, number only, no unit symbol.

Would you please look over these solved cases?
protein	quantity-measured	experimental-result
Medaka EP-1 serine protease domain mutant P193E (protein) VVGGVNAEKGAWPWMVSLHWRGRHGCGASLIGRDWLLTAAHCVYGKNTHLQYWSAVLGLHAQSSMNSQEVQIRQVDRIIINKNYNRRTKEADIAMMHLQQPVNFTEWVLPVCLASEDQHFPAGRRCFIAGWGRDAEGGSLPDILQEAEVPLVDQDECQRLLPEYTFTSSMLCAGYEEGGVDSCQGDSGGPLMCLEDARWTLIGVTSFGVGCGRPERPGAYARVSAFTSWIAETRRSSFSDLD	Km	1
Medaka EP-1 serine protease domain (wild-type) (protein) VVGGVNAEKGAWPWMVSLHWRGRHGCGASLIGRDWLLTAAHCVYGKNTHLQYWSAVLGLHAQSSMNSQEVQIRQVDRIIINKNYNRRTKEADIAMMHLQQPVNFTEWVLPVCLASEDQHFPAGRRCFIAGWGRDAEGGSLPDILQEAEVPLVDQDECQRLLPEYTFTSSMLCAGYPEGGVDSCQGDSGGPLMCLEDARWTLIGVTSFGVGCGRPERPGAYARVSAFTSWIAETRRSSFSDLD	Km	10
Medaka EP-1 serine protease domain mutant E173A (protein) VVGGVNAEKGAWPWMVSLHWRGRHGCGASLIGRDWLLTAAHCVYGKNTHLQYWSAVLGLHAQSSMNSQEVQIRQVDRIIINKNYNRRTKEADIAMMHLQQPVNFTEWVLPVCLASEDQHFPAGRRCFIAGWGRDAEGGSLPDILQEAEVPLVDQDACQRLLPEYTFTSSMLCAGYPEGGVDSCQGDSGGPLMCLEDARWTLIGVTSFGVGCGRPERPGAYARVSAFTSWIAETRRSSFSDLD	Km	1
porcine EP serine protease domain (Ile800 to His1034) (protein) IVGGNDSREGAWPWVVALYYNGQLLCGASLVSRDWLVSAAHCVYGRNLEPSKWKAILGLHMTSNLTSPQIVTRLIDEIVINPHYNRRRKDSDIAMMHLEFKVNYTDYIQPICLPEENQVFPPGRICSIAGWGKVIYQGSPADILQEADVPLLSNEKCQQQMPEYNITENMMCAGYEEGGIDSCQGDSGGPLMCLENNRWLLAGVTSFGYQCALPNRPGVYARVPKFTEWIQSFLH	Km	3.9
Bovine EP serine protease (Novagen) (protein) IVGGSDSREGAWPWVVALYFDDQQVCGASLVSRDWLVSAAHCVYGRNMEPSKWKAVLGLHMASNLTSPQIETRLIDQIVINPHYNKRRKNNDIAMMHLEMKVNYTDYIQPICLPEENQVFPPGRICSIAGWGALIYQGSTADVLQEADVPLLSNEKCQQQMPEYNITENMVCAGYEAGGVDSCQGDSGGPLMCQENNRWLLAGVTSFGYQCALPNRPGVYARVPRFTEWIQSFLH	Km	4
Medaka EP-1 serine protease domain mutant K63R (protein) VVGGVNAEKGAWPWMVSLHWRGRHGCGASLIGRDWLLTAAHCVYGRNTHLQYWSAVLGLHAQSSMNSQEVQIRQVDRIIINKNYNRRTKEADIAMMHLQQPVNFTEWVLPVCLASEDQHFPAGRRCFIAGWGRDAEGGSLPDILQEAEVPLVDQDECQRLLPEYTFTSSMLCAGYPEGGVDSCQGDSGGPLMCLEDARWTLIGVTSFGVGCGRPERPGAYARVSAFTSWIAETRRSSFSDLD	Km	1.1
Bovine EP serine protease (New England Biolabs) (protein) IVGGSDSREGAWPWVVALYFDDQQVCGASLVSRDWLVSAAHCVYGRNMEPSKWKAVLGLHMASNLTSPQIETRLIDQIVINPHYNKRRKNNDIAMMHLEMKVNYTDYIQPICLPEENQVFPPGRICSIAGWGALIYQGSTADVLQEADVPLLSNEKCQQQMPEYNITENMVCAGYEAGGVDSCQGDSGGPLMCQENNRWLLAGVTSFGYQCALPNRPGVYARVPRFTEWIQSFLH	Km	2.9

Let us examine a further case.
// query Respond only with Km recorded for Medaka EP-1 serine protease domain mutant T105E (protein) VVGGVNAEKGAWPWMVSLHWRGRHGCGASLIGRDWLLTAAHCVYGKNTHLQYWSAVLGLHAQSSMNSQEVQIRQVDRIIINKNYNRREKEADIAMMHLQQPVNFTEWVLPVCLASEDQHFPAGRRCFIAGWGRDAEGGSLPDILQEAEVPLVDQDECQRLLPEYTFTSSMLCAGYPEGGVDSCQGDSGGPLMCLEDARWTLIGVTSFGVGCGRPERPGAYARVSAFTSWIAETRRSSFSDLD
// result 1.3
